The reader will find reported thermal stability score values listed item by item below.
- System: HeLa Kyoto;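 further: synchronized HeLa Kyoto cells, proteins quantified by TMT10plex mass spectrometry, three biological replicates, mitosis taken 0.5 h after nocodazole release, G1/S directly after double thymidine block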
- Assay overview: thermal stability score vs G1/S (z-score of summed log2 fold changes over temperatures); higher = more thermally stable than in G1/S
- Study conditions: cell cycle stage: early G1 (4.5 h after nocodazole release)
Measure name: thermal stability score

>>> readout_value("MPKAKGKTRRQKFGYSVNRKRLNRNARRKAAPRIECSHIRHAWDHAKSVRQNLAEMGLAVDPNRAVPLRKRKVKAMEVDIEERPKELVRKPYVLNDLEAEASLPEKKGNTLSRDLIDYVRYMVENHGEDYKAMARDEKNYYQDTPKQIRSKINVYKRFYPAEWQDFLDSLQKRKMEVE [NOP16]")
-0.631
>>> readout_value("MSGLSGPPARRGPFPLALLLLFLLGPRLVLAISFHLPINSRKCLREEIHKDLLVTGAYEISDQSGGAGGLRSHLKITDSAGHILYSKEDATKGKFAFTTEDYDMFEVCFESKGTGRIPDQLVILDMKHGVEAKNYEEIAKVEKLKPLEVELRRLEDLSESIVNDFAYMKKREEEMRDTNESTNTRVLYFSIFSMFCLIGLATWQVFYLRRFFKAKKLIE [TMED10]")
0.651
>>> readout_value("MLVLRSALTRALASRTLAPQMCSSFATGPRQYDGIFYEFRSYYLKPSKMNEFLENFEKNAHLRTAHSELVGYWSVEFGGRMNTVFHIWKYDNFAHRTEVRKALAKDKEWQEQFLIPNLALIDKQESEITYLVPWCKLEKPPKEGVYELATFQMKPGGPALWGDAFKRAVHAHVNLGYTKLVGVFHTEYGALNRVHVLWWNESADSRAAGRHKSHEDPRVVAAVRESVNYLVSQQNMLLIPTSFSPLK [NIPSNAP3A]")
-1.76
>>> readout_value("MAAFAVEPQGPALGSEPMMLGSPTSPKPGVNAQFLPGFLMGDLPAPVTPQPRSISGPSVGVMEMRSPLLAGGSPPQPVVPAHKDKSGAPPVRSIYDDISSPGLGSTPLTSRRQPNISVMQSPLVGVTSTPGTGQSMFSPASIGQPRKTTLSPAQLDPFYTQGDSLTSEDHLDDSWVTVFGFPQASASYILLQFAQYGNILKHVMSNTGNWMHIRYQSKLQARKALSKDGRIFGESIMIGVKPCIDKSVMESSDRCALSSPSLAFTPPIKTLGTPTQPGSTPRISTMRPLATAYKASTSDYQVISDRQTPKKDESLVSKAMEYMFGW [NUP35]")
-2.22
>>> readout_value("MEVKPPPGRPQPDSGRRRRRRGEEGHDPKEPEQLRKLFIGGLSFETTDDSLREHFEKWGTLTDCVVMRDPQTKRSRGFGFVTYSCVEEVDAAMCARPHKVDGRVVEPKRAVSREDSVKPGAHLTVKKIFVGGIKEDTEEYNLRDYFEKYGKIETIEVMEDRQSGKKRGFAFVTFDDHDTVDKIVVQKYHTINGHNCEVKKALSKQEMQSAGSQRGRGGGSGNFMGRGGNFGGGGGNFGRGGNFGGRGGYGGGGGGSRGSYGGGDGGYNGFGGDGGNYGGGPGYSSRGGYGGGGPGYGNQGGGYGGGGGYDGYNEGGNFGGGNYGGGGNYNDFGNYSGQQQSNYGPMKGGSFGGRSSGSPYGGGYGSGGGSGGYGSRRF [HNRNPA3]")
2.6
